src = patent US8633206B2

# key: entry, value: pIC50
assay_system: JAK3 (Homo sapiens (Human), UniProt P52333)
Sequence (P52333 781-1124): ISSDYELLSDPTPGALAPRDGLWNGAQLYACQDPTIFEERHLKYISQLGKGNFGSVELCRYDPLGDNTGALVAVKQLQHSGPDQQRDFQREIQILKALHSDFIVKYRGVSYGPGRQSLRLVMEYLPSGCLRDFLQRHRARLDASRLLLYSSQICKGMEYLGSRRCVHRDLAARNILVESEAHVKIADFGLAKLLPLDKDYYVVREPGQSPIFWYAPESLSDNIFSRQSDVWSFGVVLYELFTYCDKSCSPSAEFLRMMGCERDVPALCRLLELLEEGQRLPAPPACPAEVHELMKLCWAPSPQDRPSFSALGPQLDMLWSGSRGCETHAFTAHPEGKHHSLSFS
procedure_summary: JAK enzymatic assay (peptide mobility shift), JAK3
assay_context: recombinant JAK3 1 nM, JAKtide peptide, 90 minutes
// pIC50: -log10(molar conc.)

CN(c1ncnc2[nH]ccc12)[C@H]1CC[C@H](CS(=O)(=O)N2CC[C@H](OCC(=O)N3CCCC3)C2)CC1 ... 6.41

Field request: pIC50 | item: CN(c1ncnc2[nH]ccc12)[C@H]1CC[C@H](CS(=O)(=O)N2C[C@@H](F)[C@H](F)C2)CC1
6.56

Likewise for CN(C)C(=O)CO[C@@H]1CCN(S(=O)(=O)C[C@H]2CC[C@H](N(C)c3ncnc4[nH]ccc34)CC2)C1 ?
6.19

Likewise for CN(c1ncnc2[nH]ccc12)[C@H]1CC[C@H](CS(=O)(=O)N2CC[C@](O)(c3ccccn3)C2)CC1 ?
6.53

Likewise for CC1CN(S(=O)(=O)C[C@H]2CC[C@H](N(C)c3ncnc4[nH]ccc34)CC2)CCN1C (some centres unmarked) ?
5.72

Likewise for Cc1cc(CC[C@]2(O)CCN(S(=O)(=O)C[C@H]3CC[C@H](N(C)c4ncnc5[nH]ccc45)CC3)C2)on1 ?
6.54

Likewise for Cc1cccc(N2CCN(S(=O)(=O)C[C@H]3CC[C@H](N(C)c4ncnc5[nH]ccc45)CC3)CC2)n1 ?
7.05

Likewise for CN(c1ncnc2[nH]ccc12)[C@H]1CC[C@H](CS(=O)(=O)N2CC[C@@](O)(COc3cccc(F)c3)C2)CC1 ?
6.88

Likewise for CN(c1ncnc2[nH]ccc12)[C@H]1CC[C@H](CS(=O)(=O)N2CCCC(CN3CCCC3)C2)CC1 (some centres unmarked) ?
5.48

Likewise for COCC1CCN(S(=O)(=O)C[C@H]2CC[C@H](N(C)c3ncnc4[nH]ccc34)CC2)CC1 ?
6.36

Likewise for CN(c1ncnc2[nH]ccc12)[C@H]1CC[C@H](CS(=O)(=O)N2CC[C@H](c3ccccn3)C2)CC1 ?
7.44

Likewise for CN(c1ncnc2[nH]ccc12)[C@H]1CC[C@H](CS(=O)(=O)N2CC[C@H](S(=O)(=O)CCc3ccccc3)C2)CC1 ?
6.88

Likewise for CN(c1ncnc2[nH]ccc12)[C@H]1CC[C@H](CS(=O)(=O)N2CCC(C(C)(C)O)CC2)CC1 ?
6.40

Likewise for CCN(CC)C(=O)C1CCN(S(=O)(=O)C[C@H]2CC[C@H](N(C)c3ncnc4[nH]ccc34)CC2)CC1 ?
5.91

---

assay_system: JAK1 (Homo sapiens (Human))
procedure_summary: JAK enzymatic assay (peptide mobility shift), JAK1
assay_context: recombinant JAK1 20 nM, IRS-1 peptide, 240 minutes
Method: Recombinant JAK1 (Catalog Number PV4775), JAK2 (Catalog Number PV4210) and JAK3 (Catalog Number PV3855) were purchased from (Invitrogen Corporation, Madison, Wis.). […] Compounds were diluted serially in 100% dimethyl sulfoxide and tested in an 11 point dose response in duplicate or quadruplicate (200 nl of compound/DMSO was added per 10 L reaction). […] Data was analyzed using Hits Well Analyzer Software from (Caliper Life Sciences) to obtain the amount of product formed. […]
observed_property: IC50 (nM)
Answer in nM, number only, no unit symbol.

CN(c1ncnc2[nH]ccc12)[C@H]1CC[C@H](CS(=O)(=O)N2CC(c3nnn[nH]3)C2)CC1 ... 1.55
CN(c1ncnc2[nH]ccc12)[C@H]1CC[C@H](CS(=O)(=O)N2C[C@@H](F)[C@H](F)C2)CC1 ... 13.8
CN(c1ncnc2[nH]ccc12)[C@H]1CC[C@H](CS(=O)(=O)N2CC[C@@](O)(CSc3ccccn3)C2)CC1 ... 1.36

Field request: IC50 | item: CN(c1ncnc2[nH]ccc12)[C@H]1CC[C@H](CS(=O)(=O)N2CCCC3(CNC(=O)C3)C2)CC1 (some centres unmarked)
14.4

Likewise for CN(c1ncnc2[nH]ccc12)[C@H]1CC[C@H](CS(=O)(=O)N2CC[C@](CO)(CCO)C2)CC1 ?
12.5

Likewise for C[C@@H]1C[C@@H](CS(=O)(=O)N2CCC[C@@H](O)C2)CC[C@@H]1N(C)c1ncnc2[nH]ccc12 ?
1.7

Likewise for CN(c1ncnc2[nH]ccc12)[C@H]1CC[C@H](CS(=O)(=O)N2CC(F)C2)CC1 ?
12.5

Likewise for CN(c1ncnc2[nH]ccc12)[C@H]1CC[C@H](CS(=O)(=O)N2CCC(O)CC2)CC1 ?
9.18

Likewise for Cc1cccc(N2CCN(S(=O)(=O)C[C@H]3CC[C@H](N(C)c4ncnc5[nH]ccc45)CC3)CC2)n1 ?
6.48

Likewise for CN(c1ncnc2[nH]ccc12)[C@H]1CC[C@H](CS(=O)(=O)N2C[C@H](CO)[C@H](S(C)(=O)=O)C2)CC1 ?
10.4

---

assay_system: JAK1 (Homo sapiens (Human), UniProt P23458)
Sequence (P23458 whole entry): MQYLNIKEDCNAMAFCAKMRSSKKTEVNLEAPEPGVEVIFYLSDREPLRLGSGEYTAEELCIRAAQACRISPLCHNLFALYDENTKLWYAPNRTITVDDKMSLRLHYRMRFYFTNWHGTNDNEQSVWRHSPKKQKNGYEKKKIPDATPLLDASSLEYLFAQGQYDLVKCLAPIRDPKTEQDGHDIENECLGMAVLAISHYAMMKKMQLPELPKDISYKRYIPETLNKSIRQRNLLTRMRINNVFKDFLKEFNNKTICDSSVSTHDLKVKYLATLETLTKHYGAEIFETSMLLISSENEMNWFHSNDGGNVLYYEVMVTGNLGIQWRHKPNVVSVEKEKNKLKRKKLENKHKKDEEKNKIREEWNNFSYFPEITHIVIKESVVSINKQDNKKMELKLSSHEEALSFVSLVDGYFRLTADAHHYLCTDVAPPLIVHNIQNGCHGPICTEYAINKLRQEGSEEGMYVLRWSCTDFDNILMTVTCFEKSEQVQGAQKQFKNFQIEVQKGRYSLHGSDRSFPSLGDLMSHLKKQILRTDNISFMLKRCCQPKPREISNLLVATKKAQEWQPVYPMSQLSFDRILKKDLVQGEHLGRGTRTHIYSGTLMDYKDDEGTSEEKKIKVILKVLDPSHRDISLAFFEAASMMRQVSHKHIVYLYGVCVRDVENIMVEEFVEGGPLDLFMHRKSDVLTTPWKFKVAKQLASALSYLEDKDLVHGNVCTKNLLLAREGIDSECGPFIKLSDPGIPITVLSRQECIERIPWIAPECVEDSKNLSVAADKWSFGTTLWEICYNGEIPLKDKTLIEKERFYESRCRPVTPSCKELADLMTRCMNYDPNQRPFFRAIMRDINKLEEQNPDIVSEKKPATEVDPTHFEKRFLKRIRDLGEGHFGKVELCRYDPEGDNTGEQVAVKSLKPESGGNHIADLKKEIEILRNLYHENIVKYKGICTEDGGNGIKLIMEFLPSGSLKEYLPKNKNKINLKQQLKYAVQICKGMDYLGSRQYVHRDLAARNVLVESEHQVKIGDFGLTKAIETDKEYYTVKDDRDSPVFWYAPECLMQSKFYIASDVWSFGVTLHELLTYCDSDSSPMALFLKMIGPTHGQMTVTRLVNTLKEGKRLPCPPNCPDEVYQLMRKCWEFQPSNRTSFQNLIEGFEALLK
procedure_summary: JAK enzymatic assay (peptide mobility shift), JAK1
assay_context: recombinant JAK1 20 nM, IRS-1 peptide, 240 minutes
I'd appreciate it if you marked entries Condition met when IC50 is lower than 3 nM and Condition not met when it is not.

Illustrative cases are given below, each with its answer.
CN(c1ncnc2[nH]ccc12)[C@H]1CC[C@H](CS(=O)(=O)N2CCS(=O)(=O)CC2)CC1 [Example 126] ... Condition not met
CCOC1CCCN(S(=O)(=O)CC2CCC(N(C)c3ncnc4[nH]ccc34)CC2)C1 (centres unmarked) [Example 3] ... Condition met
CN(c1ncnc2[nH]ccc12)[C@H]1CC[C@H](CS(=O)(=O)N2C[C@@H](O)[C@H](C#N)C2)CC1 [Example 36] ... Condition not met

# next compound below
IC50 strictly < 3 nM for this compound? CCOCCO[C@@H]1CCN(S(=O)(=O)C[C@H]2CC[C@H](N(C)c3ncnc4[nH]ccc34)CC2)C1 [Example 28]
Condition not met

---

# key: entry, value: pIC50
assay_system: JAK3 (Homo sapiens (Human))
procedure_summary: JAK enzymatic assay (peptide mobility shift), JAK3
assay_context: recombinant JAK3 1 nM, JAKtide peptide, 90 minutes
// pIC50: -log10(molar conc.)

CN(c1ncnc2[nH]ccc12)[C@H]1CC[C@H](CS(=O)(=O)N2CC[C@@H](CO)C2)CC1 [Example 30] ... 6.95
CN(c1ncnc2[nH]ccc12)[C@H]1CC[C@H](CS(=O)(=O)N2CC[C@H](S(C)(=O)=O)C2)CC1 [Example 76] ... 6.90
CN(c1ncnc2[nH]ccc12)[C@H]1CC[C@H](CS(=O)(=O)N2CC(c3nnn[nH]3)C2)CC1 [Example 113] ... 6.95

Moving on to another molecule below.
Field request: pIC50 | item: CN(c1ncnc2[nH]ccc12)[C@H]1CC[C@H](CS(=O)(=O)N2C[C@@H](O)[C@H](c3ccccc3)C2)CC1 [Example 29]
6.82

---

assay_system: JAK1 (Homo sapiens (Human), UniProt P23458)
procedure_summary: JAK enzymatic assay (peptide mobility shift), JAK1
assay_context: recombinant JAK1 20 nM, IRS-1 peptide, 240 minutes
observed_property: pIC50
// pIC50: -log10(molar conc.)

CN(c1ncnc2[nH]ccc12)[C@H]1CC[C@H](CS(=O)(=O)N2CCC[C@H](CS(N)(=O)=O)C2)CC1 ... 8.51
CN(c1ncnc2[nH]ccc12)[C@H]1CC[C@H](CS(=O)(=O)N2CC[C@](O)(c3ccccn3)C2)CC1 ... 7.97
COC[C@H]1CCCN1S(=O)(=O)C[C@H]1CC[C@H](N(C)c2ncnc3[nH]ccc23)CC1 ... 8.02
CN(c1ncnc2[nH]ccc12)[C@H]1CC[C@H](CS(=O)(=O)N2CCC(Cc3ncccn3)CC2)CC1 ... 8.22
CN(c1ncnc2[nH]ccc12)[C@H]1CC[C@H](CS(=O)(=O)N2CC[C@H](NC(=O)OC(C)(C)C)C2)CC1 ... 8.84

Field request: pIC50 | item: CN(c1ncnc2[nH]ccc12)[C@H]1CC[C@H](CS(=O)(=O)N2CCC[C@@H](O)C2)CC1
8.84

---

assay_system: JAK2 (Homo sapiens (Human), UniProt O60674)
Sequence (O60674 808-1132): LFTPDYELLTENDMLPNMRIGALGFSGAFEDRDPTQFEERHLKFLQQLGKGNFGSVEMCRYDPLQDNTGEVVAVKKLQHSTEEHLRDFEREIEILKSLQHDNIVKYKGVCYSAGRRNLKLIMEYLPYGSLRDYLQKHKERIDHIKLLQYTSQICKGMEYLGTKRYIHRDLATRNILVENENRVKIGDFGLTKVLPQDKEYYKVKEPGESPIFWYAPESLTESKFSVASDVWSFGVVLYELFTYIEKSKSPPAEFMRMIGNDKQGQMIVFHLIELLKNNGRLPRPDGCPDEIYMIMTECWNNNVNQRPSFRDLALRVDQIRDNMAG
procedure_summary: JAK enzymatic assay (peptide mobility shift), JAK2
assay_context: recombinant JAK2 2 nM, JAKtide peptide, 150 minutes
pIC50: −log10 of the molar value.
Rule: rule met for pIC50 not less than 8, rule not met for anything less.

CN(c1ncnc2[nH]ccc12)[C@H]1CC[C@H](CS(=O)(=O)N2CC[C@](O)(c3ccccn3)C2)CC1 ... rule not met
CN(c1ncnc2[nH]ccc12)[C@H]1CC[C@H](CS(=O)(=O)N2CCC(C(C)(C)O)CC2)CC1 ... rule not met

Say whether CN(c1ncnc2[nH]ccc12)[C@H]1CC[C@H](CS(=O)(=O)N2CC[C@@H](c3ccccc3)C2)CC1 shows pIC50 of 8 or more.
rule not met

---

assay_system: JAK2 (Homo sapiens (Human), UniProt O60674)
procedure_summary: JAK enzymatic assay (peptide mobility shift), JAK2
assay_context: recombinant JAK2 2 nM, JAKtide peptide, 150 minutes
observed_property: IC50 (nM)
Answer in nM, number only, no unit symbol.

Quick check: IC50 on JAK2 (Homo sapiens (Human), UniProt O60674), item CN(c1ncnc2[nH]ccc12)[C@H]1CC[C@H](CS(=O)(=O)N2CC[C@H](Oc3ccccc3C#N)C2)CC1 [Example 88] ?
23.4

Likewise for CN(c1ncnc2[nH]ccc12)[C@H]1CC[C@H](CS(=O)(=O)N2CCC(O)(c3ccccc3)CC2)CC1 [Example 24] ?
7.42

Likewise for Cc1ccc(N2CCN(S(=O)(=O)C[C@H]3CC[C@H](N(C)c4ncnc5[nH]ccc45)CC3)CC2)nc1 [Example 118] ?
50.8

Likewise for C[C@H]1CN(S(=O)(=O)C[C@H]2CC[C@H](N(C)c3ncnc4[nH]ccc34)CC2)C[C@@H]1CO [Example 80] ?
18.5

Likewise for CN(c1ncnc2[nH]ccc12)[C@H]1CC[C@H](CS(=O)(=O)N2CC(O)C2)CC1 [Example 115] ?
34.4
